Reference source: ChEMBL document CHEMBL1141586

Target: C-X-C chemokine receptor type 3 (Homo sapiens, UniProt P49682)
Sequence (P49682 whole entry): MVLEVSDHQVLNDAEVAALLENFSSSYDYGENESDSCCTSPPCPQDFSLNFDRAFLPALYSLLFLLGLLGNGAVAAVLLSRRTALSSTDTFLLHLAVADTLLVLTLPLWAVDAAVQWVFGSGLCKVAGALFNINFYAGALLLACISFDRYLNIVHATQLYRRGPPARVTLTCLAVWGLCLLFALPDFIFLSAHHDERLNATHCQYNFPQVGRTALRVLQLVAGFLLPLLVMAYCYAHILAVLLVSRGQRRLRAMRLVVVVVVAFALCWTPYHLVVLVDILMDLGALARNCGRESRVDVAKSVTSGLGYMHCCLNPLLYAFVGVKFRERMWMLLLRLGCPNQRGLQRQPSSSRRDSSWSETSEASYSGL
Experiment: Displacement of [125I]IP10 from human recombinant CXCR3 receptor expressed in IL2-activated human PBMC
measurement.label: IC50 (nM)

As a guide, the following entries are already answered.
## Input Can you share its IC50? I mean this compound: CCS(=O)(=O)CCN(C(=O)Cc1ccc(F)c(C(F)(F)F)c1)[C@H](C)c1nc(C2CC2)c(CF)n1-c1ccc(C#N)cc1
## Output 8

## Input What IC50 value was documented for this compound, CCOc1ccc(-n2ccnc2[C@@H](C)N(Cc2cccnc2)C(=O)Cc2ccc(F)c(C(F)(F)F)c2)cc1 ?
## Output 1800

## Input Using the record for CCOc1ccc(-n2cc(-c3ccccc3)nc2[C@@H](C)N(CCS(=O)(=O)CC)C(=O)Cc2ccc(OC(F)(F)F)cc2)cc1 , report its IC50.
## Output 7.1

## Input For the compound shown here, CCS(=O)(=O)CCN(C(=O)Cc1ccc(F)c(C(F)(F)F)c1)[C@H](C)c1nc(C2CC2)cn1-c1ccc(C#N)cc1 , give the reported IC50.
## Output 6.6

(P) CCS(=O)(=O)CCN(C(=O)Cc1ccc(F)c(C(F)(F)F)c1)[C@H](C)c1nc(C2CC2)c(-c2ccccc2)n1-c1ccc(C#N)cc1
(Q) CCOc1ccc(-n2cc(-c3ccccc3)nc2[C@@H](C)N(C[C@@H]2CCCN2C)C(=O)Cc2ccc(F)c(C(F)(F)F)c2)cc1
## Input When P and Q are compared, which has the higher number for IC50? Pick one; state its label.
## Output P
(P: 752 nM, Q: 6.4 nM)
